Test system: 2Sp-muMax20 (muMax20 with two 2,6-bis(methyl)pyridine Cys staples)
Test: PBM 8-mer E-score (E-score (rank enrichment, -0.5 to 0.5)); higher = stronger preferential binding
The full ranking holds about 33,000 sequences; the median of “E-score (rank enrichment, -0.5 to 0.5)” is about -0.0043, and the highest 2% start at about 0.24. For the sample, the highest values were picked, then their nearest neighbours and some sequences at random.
Note: every record was labeled by where its PBM 8-mer E-score sits among low group (below -0.01), middle group (-0.01 to below 0.2), high group (0.2 or more)

For orientation, consider the following solved cases.
ACGAGATG middle group
TATCCGCA middle group
CATGTTAC high group
CAGCGGCC low group
ACCAATTC low group

[in] Assign a category based on measured PBM 8-mer E-score for `GTTGTTTA` and give only the class name.
[out] high group

[in] Assign a category based on measured PBM 8-mer E-score for `ACGTGCAC` and give only the class name.
[out] high group

[in] Assign a category based on measured PBM 8-mer E-score for `CACCTTTA` and give only the class name.
[out] low group
